Value source: ChEMBL document CHEMBL1949499

Assay: Half life in C57/BL6 mouse at 10 mg/kg, po and 2 mg/kg, iv
Type: ADME, organism-based
Details: in vivo
Quantity Measured: half-life (min)
Dear colleague, please return just the value in min, with no unit written.

Name the reported half-life value associated with the compound O=C(O)c1cncc(-c2ccc(N3CCC(Oc4cc(F)ccc4Br)CC3)nn2)c1 24

----------
Biological target: Acyl-CoA desaturase 1 (Rattus norvegicus)
Sequence (P07308 whole entry): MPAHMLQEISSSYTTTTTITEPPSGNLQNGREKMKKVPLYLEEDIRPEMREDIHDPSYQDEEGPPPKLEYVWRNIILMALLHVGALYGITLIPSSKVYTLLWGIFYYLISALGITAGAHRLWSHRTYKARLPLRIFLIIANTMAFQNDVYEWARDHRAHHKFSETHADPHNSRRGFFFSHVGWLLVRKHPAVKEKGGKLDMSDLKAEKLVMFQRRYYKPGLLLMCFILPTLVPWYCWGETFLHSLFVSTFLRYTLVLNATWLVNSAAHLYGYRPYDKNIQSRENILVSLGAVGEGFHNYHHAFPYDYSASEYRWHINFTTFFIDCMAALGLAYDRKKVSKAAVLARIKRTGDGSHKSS
Assay: Inhibition of SCD1 in Sprague-Dawley rat hepatocytes assessed as conversion of [14C]oleic acid formation by HPLC analysis
Assay type: cell-based, Hepatocyte
Entries annotated with measured log10 IC50
# values: log10(IC50), units nM

// below: answered compounds
O=C(O)Cc1cncc(-c2ccc(N3CCC(Oc4cc(F)ccc4Br)CC3)nn2)c1    1.88
O=C(O)c1cncc(-c2ccc(N3CCC(Oc4cc(F)ccc4Br)CC3)nc2)c1    3.29
O=C(O)c1ccc(-c2ccc(N3CCC(Oc4cc(F)ccc4Br)CC3)nn2)nc1    2.20

Reported log10 IC50 for Acyl-CoA desaturase 1 (Rattus norvegicus), given O=C(O)c1cncc(-c2ccc(N3CCC(Oc4cc(F)ccc4Br)CC3)nn2)c1 ? 2.24

Could you do the same for O=C(O)c1cncc(-c2ccc(N3CCC(Oc4cc(F)c(F)cc4Br)CC3)nn2)c1 , please? 2.75

Could you do the same for O=C(O)c1cncc(-c2ccc(N3CCC(Oc4ccccc4Br)CC3)nn2)c1 , please? 3.21

Could you do the same for O=C(O)c1cncc(-c2cnc(N3CCC(Oc4cc(F)ccc4Br)CC3)cn2)c1 , please? 3.13

Could you do the same for O=C(O)c1cncc(-c2ccc(N3CCC(Oc4ccccc4Cl)CC3)nn2)c1 , please? 3.28

Could you do the same for O=C(O)c1cncc(-c2cnc(N3CCC(Oc4cc(F)ccc4Br)CC3)nc2)c1 , please? 3.48

Could you do the same for O=C(O)c1cncc(-c2ccc(N3CCC(Oc4ccccc4C(F)(F)F)CC3)nn2)c1 , please? 3.11

Could you do the same for O=C(O)c1cncc(-c2ccc(N3CCC(Oc4ccccc4I)CC3)nn2)c1 , please? 3.00

Could you do the same for O=C(O)c1cncc(-c2cnc(N3CCC(Oc4cc(F)ccc4Br)CC3)nn2)c1 , please? 2.43

----------
Assay: Oral bioavailability in C57/BL6 mouse plasma at 10 mg/kg
Type: ADME, organism-based
Quantity Measured: bioavailability (%)
Dear colleague, please return just the value in %, with no unit written.

Name the reported bioavailability value associated with the compound O=C(O)c1cncc(-c2ccc(N3CCC(Oc4cc(F)ccc4Br)CC3)nn2)c1 8

----------
Experiment: Drug uptake in C57/BL6 mouse kidney at 30 mg/kg, po after 2 hrs
Assay type: ADME, organism-based
Set-up: dose 30 mg/kg, route oral
Conditions: read-out: Drug uptake
Quantity Measured: concentration at 2 h (µM)
Dear colleague, please return just the value in µM, with no unit written.

Name the reported concentration at 2 h value associated with the compound O=C(O)c1cncc(-c2ccc(N3CCC(Oc4cc(F)ccc4Br)CC3)nn2)c1 6.14

----------
Test: Drug uptake in C57/BL6 mouse heart at 30 mg/kg, po after 2 hrs
Format: ADME, organism-based
Set-up: dose 30 mg/kg, route oral
Details: read-out: Drug uptake
Quantity Measured: concentration at 2 h (nM)
Dear colleague, please return just the value in nM, with no unit written.

Name the reported concentration at 2 h value associated with the compound O=C(O)c1cncc(-c2ccc(N3CCC(Oc4cc(F)ccc4Br)CC3)nn2)c1 177
